- Method description: Observed AUC (0 to infinity) in Sprague-Dawley rat at 5 mg/kg, iv
- Assay type: ADME, organism-based
- Settings: in vivo
Reported property: AUC(0-inf) (ng·h/mL)
Give bare numbers, in ng·h/mL.

Respond only with AUC(0-inf) recorded for C=C[C@]1(C)C[C@@H](OC(=O)CSc2nc3cc[n+](Cc4ccc(C)cc4)cc3[nH]2)[C@]2(C)[C@H](C)CC[C@]3(CCC(=O)[C@H]32)[C@@H](C)[C@@H]1O.[Br-]
16500

---

- Method description: Half-life in Sprague-Dawley rat at 10 mg/kg, po
- Type: ADME, organism-based
- Settings: in vivo
Reported property: half-life (h)
One number for each entry, in h.

Respond only with half-life recorded for C=C[C@]1(C)C[C@@H](OC(=O)CSc2nc3cc[n+](Cc4ccc(C)cc4)cc3[nH]2)[C@]2(C)[C@H](C)CC[C@]3(CCC(=O)[C@H]32)[C@@H](C)[C@@H]1O.[Br-]
1.57

---

- Method description: Cytotoxicity against human HEK293 cells assessed as reduction in cell viability incubated for 24 hrs by CCK8 assay
- Type: toxicity, cell-based
Reported property: CC50 at 24 h (µM)
Numbers only, in µM.

# example entries with known answers
[
  {
    "Molecular string": "C=C[C@]1(C)C[C@@H](OC(=O)CS[C@@H]2C[C@H]3CC[C@@H](C2)N3C)[C@]2(C)[C@H](C)CC[C@]3(CCC(=O)[C@H]32)[C@@H](C)[C@@H]1O",
    "CC50 at 24 h / µM": 57.5
  },
  {
    "Molecular string": "C=C[C@]1(C)C[C@@H](OC(=O)CSc2nc3cc[n+](Cc4ccc(C#N)cc4)cc3s2)[C@]2(C)[C@H](C)CC[C@]3(CCC(=O)[C@H]32)[C@@H](C)[C@@H]1O.[Br-]",
    "CC50 at 24 h / µM": 18.2
  },
  {
    "Molecular string": "C=C[C@]1(C)C[C@@H](OC(=O)CSc2nc3cc[n+](Cc4ccc(C)cc4)cc3[nH]2)[C@]2(C)[C@H](C)CC[C@]3(CCC(=O)[C@H]32)[C@@H](C)[C@@H]1O.[Br-]",
    "CC50 at 24 h / µM": 96.4
  },
  {
    "Molecular string": "C=C[C@]1(C)C[C@@H](OC(=O)CSC(C)(C)CNC(=O)[C@H](N)C(C)C)[C@]2(C)[C@H](C)CC[C@]3(CCC(=O)[C@H]32)[C@@H](C)[C@@H]1O",
    "CC50 at 24 h / µM": 65.4
  }
]

# evaluate next
Respond only with CC50 at 24 h recorded for C=C[C@]1(C)C[C@@H](OC(=O)CSc2nc3cc[n+](Cc4ccc(C)cc4)cc3s2)[C@]2(C)[C@H](C)CC[C@]3(CCC(=O)[C@H]32)[C@@H](C)[C@@H]1O.[Br-]
82.1

---

- Method description: Cytotoxicity against human A549 cells assessed as reduction in cell viability incubated for 24 hrs by CCK8 assay
- Type: toxicity, cell-based
Consider the following compounds; for each one, report its CC50 at 24 h.

[
  {
    "Molecular string": "C=C[C@]1(C)C[C@@H](OC(=O)CSc2nc3cc[n+](Cc4ccc(C)cc4)cc3s2)[C@]2(C)[C@H](C)CC[C@]3(CCC(=O)[C@H]32)[C@@H](C)[C@@H]1O.[Br-]",
    "CC50 at 24 h": "> 100 µM"
  },
  {
    "Molecular string": "C=C[C@]1(C)C[C@@H](OC(=O)CSc2nc3cc[n+](Cc4ccc(C)cc4)cc3[nH]2)[C@]2(C)[C@H](C)CC[C@]3(CCC(=O)[C@H]32)[C@@H](C)[C@@H]1O.[Br-]",
    "CC50 at 24 h": "> 100 µM"
  }
]

Batch: CC50 at 24 h for all items listed.
1. C=C[C@]1(C)C[C@@H](OC(=O)CSc2nc3cc[n+](Cc4ccc(C#N)cc4)cc3[nH]2)[C@]2(C)[C@H](C)CC[C@]3(CCC(=O)[C@H]32)[C@@H](C)[C@@H]1O.[Br-]
2. C=C[C@]1(C)C[C@@H](OC(=O)CSC(C)(C)CNC(=O)[C@H](N)C(C)C)[C@]2(C)[C@H](C)CC[C@]3(CCC(=O)[C@H]32)[C@@H](C)[C@@H]1O

> 100 µM
53.7 µM

Batch: CC50 at 24 h for all items listed.
1. C=C[C@]1(C)C[C@@H](OC(=O)CS[C@@H]2C[C@H]3CC[C@@H](C2)N3C)[C@]2(C)[C@H](C)CC[C@]3(CCC(=O)[C@H]32)[C@@H](C)[C@@H]1O
2. C=C[C@]1(C)C[C@@H](OC(=O)CSc2nc3cc[n+](Cc4ccc(C#N)cc4)cc3s2)[C@]2(C)[C@H](C)CC[C@]3(CCC(=O)[C@H]32)[C@@H](C)[C@@H]1O.[Br-]

["71.5 µM", "> 100 µM"]

---

- Method description: Cmax in Sprague-Dawley rat at 5 mg/kg, iv
- Assay type: ADME, organism-based
- Settings: in vivo
Reported property: Cmax (ng/mL)
One number for each entry, in ng/mL.

Respond only with Cmax recorded for C=C[C@]1(C)C[C@@H](OC(=O)CSc2nc3cc[n+](Cc4ccc(C)cc4)cc3[nH]2)[C@]2(C)[C@H](C)CC[C@]3(CCC(=O)[C@H]32)[C@@H](C)[C@@H]1O.[Br-]
25600

---

- Method description: Cytotoxicity against human HepG2 cells assessed as reduction in cell viability incubated for 24 hrs by CCK8 assay
- Format: toxicity, cell-based
Label 1 when CC50 at 24 h < 60 µM; otherwise -1.

[
  {
    "Compound": "C=C[C@]1(C)C[C@@H](OC(=O)CSc2nc3cc[n+](Cc4ccc(C#N)cc4)cc3s2)[C@]2(C)[C@H](C)CC[C@]3(CCC(=O)[C@H]32)[C@@H](C)[C@@H]1O.[Br-]",
    "Class": -1
  },
  {
    "Compound": "C=C[C@]1(C)C[C@@H](OC(=O)CSc2nc3cc[n+](Cc4ccc(C)cc4)cc3[nH]2)[C@]2(C)[C@H](C)CC[C@]3(CCC(=O)[C@H]32)[C@@H](C)[C@@H]1O.[Br-]",
    "Class": -1
  },
  {
    "Compound": "C=C[C@]1(C)C[C@@H](OC(=O)CSC(C)(C)CNC(=O)[C@H](N)C(C)C)[C@]2(C)[C@H](C)CC[C@]3(CCC(=O)[C@H]32)[C@@H](C)[C@@H]1O [VALNEMULIN]",
    "Class": -1
  },
  {
    "Compound": "C=C[C@]1(C)C[C@@H](OC(=O)CSc2nc3cc[n+](Cc4ccc(C#N)cc4)cc3[nH]2)[C@]2(C)[C@H](C)CC[C@]3(CCC(=O)[C@H]32)[C@@H](C)[C@@H]1O.[Br-]",
    "Class": -1
  }
]

API: the following record is the query input.
For this compound, is CC50 at 24 h lower than 60 µM? C=C[C@]1(C)C[C@@H](OC(=O)CSc2nc3cc[n+](Cc4ccc(C)cc4)cc3s2)[C@]2(C)[C@H](C)CC[C@]3(CCC(=O)[C@H]32)[C@@H](C)[C@@H]1O.[Br-]
1

---

- Method description: Observed clearance in Sprague-Dawley rat at 5 mg/kg, iv
- Assay type: ADME, organism-based
- Settings: in vivo
Reported property: clearance (mL/min/kg)
Numbers only, in mL/min/kg.

Respond only with clearance recorded for C=C[C@]1(C)C[C@@H](OC(=O)CSc2nc3cc[n+](Cc4ccc(C)cc4)cc3[nH]2)[C@]2(C)[C@H](C)CC[C@]3(CCC(=O)[C@H]32)[C@@H](C)[C@@H]1O.[Br-]
5.04

---

- Method description: Aqueous solubility of the compound incubated for 12 hrs by UV-Vis spectrophotometry
- Type: physicochemical
- Settings: buffer
Is solubility at 12 h at least 400 µg/mL? Then T. If not, F.

The examples below pair each entry with its known result.
[
  {
    "Molecular string": "C=C[C@]1(C)C[C@@H](OC(=O)CSc2nc3cc[n+](Cc4cc(F)ccc4C#N)cc3s2)[C@]2(C)[C@H](C)CC[C@]3(CCC(=O)[C@H]32)[C@@H](C)[C@@H]1O.[Br-]",
    "Class": "F"
  },
  {
    "Molecular string": "C=C[C@]1(C)C[C@@H](OC(=O)CSc2nc3cc[n+](Cc4ccc(C)cc4)cc3s2)[C@]2(C)[C@H](C)CC[C@]3(CCC(=O)[C@H]32)[C@@H](C)[C@@H]1O.[Br-]",
    "Class": "T"
  },
  {
    "Molecular string": "C=C[C@]1(C)C[C@@H](OC(=O)CSc2nc3cc[n+](Cc4ccc(OC)cc4)cc3s2)[C@]2(C)[C@H](C)CC[C@]3(CCC(=O)[C@H]32)[C@@H](C)[C@@H]1O.[Br-]",
    "Class": "F"
  },
  {
    "Molecular string": "C=C[C@]1(C)C[C@@H](OC(=O)CSc2nc3cc[n+](Cc4ccc(Br)cc4)cc3[nH]2)[C@]2(C)[C@H](C)CC[C@]3(CCC(=O)[C@H]32)[C@@H](C)[C@@H]1O.[Br-]",
    "Class": "T"
  },
  {
    "Molecular string": "C=C[C@]1(C)C[C@@H](OC(=O)CSC(C)(C)CNC(=O)[C@H](N)C(C)C)[C@]2(C)[C@H](C)CC[C@]3(CCC(=O)[C@H]32)[C@@H](C)[C@@H]1O",
    "Class": "F"
  },
  {
    "Molecular string": "C=C[C@]1(C)C[C@@H](OC(=O)CSc2nc3cc[n+](Cc4cc(OC)cc(OC)c4)cc3[nH]2)[C@]2(C)[C@H](C)CC[C@]3(CCC(=O)[C@H]32)[C@@H](C)[C@@H]1O.[Br-]",
    "Class": "F"
  },
  {
    "Molecular string": "C=C[C@]1(C)C[C@@H](OC(=O)CSc2nc3cc[n+](Cc4ccc(C(F)(F)F)cc4)cc3s2)[C@]2(C)[C@H](C)CC[C@]3(CCC(=O)[C@H]32)[C@@H](C)[C@@H]1O.[Br-]",
    "Class": "F"
  },
  {
    "Molecular string": "C=C[C@]1(C)C[C@@H](OC(=O)CSc2nc3cc[n+](Cc4ccc(C(F)(F)F)cc4)cc3[nH]2)[C@]2(C)[C@H](C)CC[C@]3(CCC(=O)[C@H]32)[C@@H](C)[C@@H]1O.[Br-]",
    "Class": "F"
  }
]

API: the following record is the query input.
Does solubility at 12 h meet or surpass 400 µg/mL for C=C[C@]1(C)C[C@@H](OC(=O)CSc2nc3cc[n+](Cc4cc(C)cc(C)c4)cc3[nH]2)[C@]2(C)[C@H](C)CC[C@]3(CCC(=O)[C@H]32)[C@@H](C)[C@@H]1O.[Br-] ?
T
